Biological target: T1, Pur-alpha 56-287 (C272S) (human, UniProt Q00577 56-287, C272S)
T1 sequence: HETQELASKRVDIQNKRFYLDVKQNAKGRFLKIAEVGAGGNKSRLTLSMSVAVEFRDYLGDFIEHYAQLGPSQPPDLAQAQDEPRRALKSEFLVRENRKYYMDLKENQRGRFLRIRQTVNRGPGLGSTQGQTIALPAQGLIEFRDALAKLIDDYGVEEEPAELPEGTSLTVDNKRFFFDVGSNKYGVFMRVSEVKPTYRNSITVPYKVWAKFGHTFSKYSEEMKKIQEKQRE
Assay: filter binding; replicates 491, 438, 306; 2.5 mM MgCl2; 100 mM NaCl, 10 mM HEPES pH 8.0, 2.5 mM MgCl2, 1 mM DTT; 0.5 nM labeled oligo, 0-10 uM protein, 20 min, room temperature
Details: protein: recombinant; tags: GST removed by protease (tag cleaved); chain copies: 2; label: 5'-32P; single strand

{"binder": "AGGGTTAGGGTT (ssDNA) [hTel12]", "Kd [nM]": 411}
